Overview of reported max delta Tm across a group of molecules:
- study_target: Kelch-like ECH-associated protein 1 (Homo sapiens)
- assay_name: Keap1 Kelch domain binders by melting shift, dose response, orthogonal assay for Keap1-Nrf2 interaction inhibitor project, biophysical, thermal shift, RT-PCR instrument, dry powder (AID 651829)
- experimental_setup: Recombinant Keap1 Kelch domain, Sypro Orange, at 1.2 µM, top dose 38 µM, hits give high values
Calls of active or inactive are those of the source.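 How the source made its calls: active means max delta Tm melting temperature shift above 1 degree C at some tested dose; inactive means the rest.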

{"molecule": "O=C(O)C1CCCCC1C(=O)N1CCc2ccccc2C1c1ccccc1 (configuration not stated)", "max delta Tm": "-0.003 °C (inactive)"}
{"molecule": "Cc1cc(C)c(S(=O)(=O)Nc2ncnc3ccccc23)c(C)c1", "max delta Tm": "0.086 °C (inactive)"}
{"molecule": "COC(=O)[C@H]1CCCC[C@H]1C(=O)N1CCc2ccccc2[C@H]1CN1C(=O)c2ccccc2C1=O", "max delta Tm": "-0.022 °C (inactive)"}
{"molecule": "COC(=O)[C@@H]1CCCC[C@@H]1C(=O)N1CCc2ccccc2[C@H]1CN1C(=O)c2ccccc2C1=O", "max delta Tm": "-0.023 °C (inactive)"}
{"molecule": "CCOC(=O)C(C(=O)OCC)c1cc(CN2C(=O)c3ccccc3C2=O)c2ccccc2n1", "max delta Tm": "0.127 °C (inactive)"}
{"molecule": "Cc1ccc(S(=O)(=O)NNc2nc(N3CC(O)CC3C(=O)O)nc3ccccc23)cc1 (configuration not stated)", "max delta Tm": "0.172 °C (inactive)"}
{"molecule": "O=C1c2ccccc2C(=O)N1C[C@H]1NCCc2ccccc21", "max delta Tm": "0.003 °C (inactive)"}

----------
Overview of reported max delta Tm across a group of molecules:
- study_target: Kelch-like ECH-associated protein 1 (Homo sapiens) (UniProt Q14145)
- Sequence (Q14145 whole entry, looked up, the tested form may be a part): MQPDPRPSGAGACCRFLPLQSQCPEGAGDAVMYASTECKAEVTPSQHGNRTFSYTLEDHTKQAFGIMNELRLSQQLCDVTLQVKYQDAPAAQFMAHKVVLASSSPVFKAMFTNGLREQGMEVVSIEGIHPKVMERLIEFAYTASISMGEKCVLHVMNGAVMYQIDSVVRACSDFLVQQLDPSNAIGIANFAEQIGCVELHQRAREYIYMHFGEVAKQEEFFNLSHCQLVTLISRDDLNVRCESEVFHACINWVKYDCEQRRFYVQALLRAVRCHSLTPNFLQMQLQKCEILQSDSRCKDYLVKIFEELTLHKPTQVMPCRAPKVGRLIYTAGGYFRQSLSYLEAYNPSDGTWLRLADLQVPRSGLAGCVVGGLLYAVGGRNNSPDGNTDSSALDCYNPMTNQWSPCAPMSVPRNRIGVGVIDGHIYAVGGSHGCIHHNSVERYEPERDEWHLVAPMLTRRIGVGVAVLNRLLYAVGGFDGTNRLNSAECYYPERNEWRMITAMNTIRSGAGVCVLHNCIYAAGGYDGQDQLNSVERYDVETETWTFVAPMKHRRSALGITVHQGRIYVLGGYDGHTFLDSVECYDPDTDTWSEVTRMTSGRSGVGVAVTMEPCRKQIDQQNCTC
- assay_name: Keap1 Kelch domain binders by melting shift, dose response, orthogonal assay for Keap1-Nrf2 interaction inhibitor project, biophysical, thermal shift, RT-PCR instrument, dry powder (AID 651829)
- experimental_setup: Recombinant Keap1 Kelch domain, Sypro Orange, at 2.6 µM, top dose 38 µM, hits give high values
Active and inactive are the calls of the source.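 The calls were made as follows: active = max delta Tm melting temperature shift above 1 degree C at some tested dose; inactive = the rest.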

{"molecule": "O=C(O)C1CCCCC1C(=O)N1CCc2ccccc2[C@H]1C(=O)NC12CC3CC(CC(C3)C1)C2 (stereo partly drawn)", "max delta Tm": "-0.05 °C (inactive)"}
{"molecule": "CCOC(=O)C(C(=O)OCC)c1nc(NS(=O)(=O)c2c(C)cc(C)cc2C)c2ccccc2n1", "max delta Tm": "0.045 °C (inactive)"}
{"molecule": "Cc1cc(C)c(S(=O)(=O)Nc2nc(C(C(=O)OC(C)C)C(=O)C(F)(F)F)nc3ccccc23)c(C)c1 (stereo not drawn)", "max delta Tm": "0.113 °C (inactive)"}
{"molecule": "O=C(O)C1CCCCC1C(=O)Nc1ccccc1CN1C(=O)c2ccccc2C1=O (stereo not drawn)", "max delta Tm": "0.138 °C (inactive)"}
{"molecule": "COc1ccc(CCN=C2C=C(NS(=O)(=O)c3c(C)cc(C)cc3C)c3ccccc3C2=O)cc1", "max delta Tm": "0.288 °C (inactive)"}
{"molecule": "O=C(O)c1ccccc1C(=O)N1CCc2ccccc2C1CN1C(=O)c2ccccc2C1=O (stereo not drawn)", "max delta Tm": "0.017 °C (inactive)"}
{"molecule": "O=C(Oc1cc(CN2C(=O)c3ccccc3C2=O)c2ccccc2[n+]1[O-])c1cccc(Cl)c1", "max delta Tm": "0.062 °C (inactive)"}
{"molecule": "O=C(O)C1CCCCC1C(=O)N1CCCCC1CN1C(=O)c2ccccc2C1=O (stereo not drawn)", "max delta Tm": "-0.027 °C (inactive)"}

Origin of values: PubChem BioAssay AID651829
